Values were extracted from patent EP4781993A1.

# Tested on: KPC-2 producing Klebsiella pneumoniae
# test: Broth-microdilution MIC (CLSI M07-A11) against clinical isolates
# Type: cell-based
# experimental-context: MIC >128 mg/L
measured-quantity: Number of strains

[[record]]
molecule = "C[n+]1ccn(C[C@@]2(C)[C@H](C(=O)[O-])N3C(=O)C[C@H]3S2(=O)=O)n1 [Group E2]"
measured_quantity = "Number of strains"
measured_result = 12

[[record]]
molecule = "Nc1nc(/C(=N/O)C(=O)N[C@@H]2C(=O)N3C(C(=O)O)=C(/C=C4\\CCN([C@@H]5CCNC5)C4=O)CS[C@H]23)ns1 [Group A1]"
measured_quantity = "Number of strains"
measured_result = 12

[[record]]
molecule = "O=C(NC1CCNCC1)[C@@H]1CC[C@@H]2CN1C(=O)N2OS(=O)(=O)O [Group C2]"
measured_quantity = "Number of strains"
measured_result = 9

[[record]]
molecule = "NCCN[C@H]1CC[C@H](CC(=O)N[C@H]2Cc3cccc(C(=O)O)c3OB2O)CC1 [Group D2]"
measured_quantity = "Number of strains"
measured_result = 12

[[record]]
molecule = "O=C(NNC(=O)[C@@H]1CC[C@@H]2CN1C(=O)N2OS(=O)(=O)O)[C@@H]1CCCNC1 [Group A2]"
measured_quantity = "Number of strains"
measured_result = 7

